Assayed system: T1, human GIP receptor (human) (UniProt P48546)
T1 sequence (looked up): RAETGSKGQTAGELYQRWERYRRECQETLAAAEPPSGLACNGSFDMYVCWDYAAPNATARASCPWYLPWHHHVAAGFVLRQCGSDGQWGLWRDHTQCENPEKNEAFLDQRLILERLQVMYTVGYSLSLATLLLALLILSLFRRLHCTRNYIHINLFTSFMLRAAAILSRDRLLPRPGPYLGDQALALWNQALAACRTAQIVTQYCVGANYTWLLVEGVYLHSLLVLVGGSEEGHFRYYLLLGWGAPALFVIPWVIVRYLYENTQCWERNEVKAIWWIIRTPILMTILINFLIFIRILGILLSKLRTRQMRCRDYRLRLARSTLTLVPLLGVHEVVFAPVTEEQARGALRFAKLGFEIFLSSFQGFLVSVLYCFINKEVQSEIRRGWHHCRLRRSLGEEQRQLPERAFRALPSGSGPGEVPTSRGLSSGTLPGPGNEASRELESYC
Method description: cell-based or functional assay
Field: Relative cAMP EC50. Provide a value for each of the binders that follow.
One number for each entry, in nM.

Solved cases (5 shown):
[
  {
    "Binder": "YXQGTFTSDXSKXLDKKAQXAFIEYLIEAGESSGAPPPSGS (synthetic construct; SITE 2: note = 2-Aminoisobutyric Acid; SITE 10: note = 3-(4-Pyridyl)-L-alanine; SITE 13: note = alpha-methyl-leucine; SITE 17: note = Lysine is chemically modified through conjugation of the epsilon-amino group of the Lysine side chain with (2-[2-(2-Amino-ethoxy)-ethoxy]-acetyl)) [Example 283]",
    "Relative cAMP EC50 [nM]": 0.225
  },
  {
    "Binder": "YXQGTFTSDXSXXLDKKAQXAFIEYLIAGGESSGAPPPSGSEE (synthetic construct; SITE 2: note = 2-Aminoisobutyric Acid; SITE 10: note = 3-(4-Pyridyl)-L-alanine; SITE 12: note = L-ornithine; SITE 13: note = alpha-methyl-leucine; SITE 17: note = Lysine is chemically modified through conjugation of the epsilon-amino group of the Lysine side chain with (gamma-Gl)) [Example 964]",
    "Relative cAMP EC50 [nM]": 0.288
  },
  {
    "Binder": "YXQGTFTSDXSQXLDXKAQXQFIEXLLAGGPSSGAPPPSGSEEE (not fully specified; Lys acylated γGlu-C18 diacid; non-natural residues; C-terminal amide; synthetic construct; SITE 2: note = 2-Aminoisobutyric Acid; SITE 10: note = 3-(4-Pyridyl)-L-alanine; SITE 13: note = alpha-methyl-leucine; SITE 16: note = L-ornithine; SITE 17: note = Lysine is chemically modified through conjugation of the epsilon-amino group of the Lysine side chain with D-Glutami) [Example 1084]",
    "Relative cAMP EC50 [nM]": 0.0975
  },
  {
    "Binder": "YXQGTFTSDXSRXLDKKAQXAFIEYLIAGGESSGAPPPSGSEE (synthetic construct; SITE 2: note = 2-Aminoisobutyric Acid; SITE 10: note = 3-(4-Pyridyl)-L-alanine; SITE 13: note = alpha-methyl-leucine; SITE 17: note = Lysine is chemically modified through conjugation of the epsilon-amino group of the Lysine side chain with (gamma-Glu)2-CO-(CH2)16-CO2H; SITE 20:) [Example 965]",
    "Relative cAMP EC50 [nM]": 0.13
  },
  {
    "Binder": "YXQGTFTSDFSKXLDKKAQXAFIEYLIEXGESSGAPPPSGS (Aib, αMeL; K acylated AEEA-γGlu-C18 diacid; C-amide; synthetic construct; SITE 2: note = 2-Aminoisobutyric Acid; SITE 13: note = alpha-methyl-leucine; SITE 17: note = Lysine is chemically modified through conjugation of the epsilon-amino group of the Lysine side chain with (2-[2-(2-Amino-ethoxy)-ethoxy]-acetyl)-(gamma-Glu)-CO-(CH2) 16-CO2H; SITE 20: n) [Example 216]",
    "Relative cAMP EC50 [nM]": 0.0887
  }
]

Then this binder:
Quick one: Relative cAMP EC50 of YXQGTFTSDFSXXLDKKAQXAFIEWLLEGGHSSGAPPPEGS (synthetic construct; SITE 2: note = 2-Aminoisobutyric Acid; SITE 12: note = L-ornithine; SITE 13: note = alpha-methyl-leucine; SITE 17: note = Lysine is chemically modified through conjugation of the epsilon-amino group of the Lysine side chain with (2-[2-(2-Amino-ethoxy)-ethoxy]-acetyl)-(gamma-Glu)) [Example 126] ? 0.264
